experiment: Pharmacokinetics in Sprague Dawley rats, repeat oral administration for 15 days; format: in vivo, rat; settings: female, Sprague-Dawley, rat, plasma, po, 10 mg/kg, SD rats, oral gavage, Day 1, 10 mg/kg, Female
measured_quantity: AUC(0-inf) (µg·h/mL)
Quick note: give the figure in µg·h/mL, leave out the unit.

Record N#Cc1ccc(N2CCC[C@@H]2[C@@H](O)C(F)(F)F)cc1C(F)(F)F [Compound 102] , field AUC(0-inf): 4.21

---

assay: Pharmacokinetics in orchidectomized male rats (plasma, Day 14); type: in vivo; conditions: rat, ORX male rats, PO, Day 14, 30 mg/kg
measured_quantity: Cmax
Please don't drop the unit; write it after the number.

Record N#Cc1ccc(N2CCC[C@@H]2[C@@H](O)C(F)(F)F)cc1C(F)(F)F [Compound 102] , field Cmax: 205 ng/mL

---

assay: Pharmacokinetics in orchidectomized male rats (plasma, Day 14); format: in vivo; conditions: rat, ORX male rats, PO, Day 14, 3 mg/kg
measured_quantity: Cmax (ng/mL)
Quick note: give the figure in ng/mL, leave out the unit.

Record `N#Cc1ccc(N2CCC[C@@H]2[C@@H](O)C(F)(F)F)cc1C(F)(F)F` , field Cmax: 36

---

assay: Pharmacokinetics in Sprague Dawley rats, repeat oral administration for 15 days; format: in vivo, rat; settings: male, Sprague-Dawley, rat, plasma, po, 3 mg/kg, SD rats, oral gavage once daily, Day 15, 3 mg/kg, Male
measured_quantity: half-life (h)
Quick note: give the figure in h, leave out the unit.

Record N#Cc1ccc(N2CCC[C@@H]2[C@@H](O)C(F)(F)F)cc1C(F)(F)F [Compound 102] , field half-life: 4.1

---

experiment: Pharmacokinetics in orchidectomized male rats (plasma, Day 14); assay type: in vivo; conditions: male, rat, po, 10 mg/kg, ORX male rats, Day 14, 10 mg/kg, 0 hr conc. substituted for 24 hr, read-out: AUC24
measured_quantity: AUC (ng·h/mL)
Quick note: give the figure in ng·h/mL, leave out the unit.

Record N#Cc1ccc(N2CCC[C@@H]2[C@@H](O)C(F)(F)F)cc1C(F)(F)F [Compound 102] , field AUC: 764

---

assay: Pharmacokinetics in Sprague Dawley rats, repeat oral administration for 15 days; format: in vivo, rat; settings: female, Sprague-Dawley, rat, plasma, po, 3 mg/kg, SD rats, oral gavage once daily, Day 15, 3 mg/kg, Female, n = 3
measured_quantity: Cmax (ng/mL)
Quick note: give the figure in ng/mL, leave out the unit.

Record N#Cc1ccc(N2CCC[C@@H]2[C@@H](O)C(F)(F)F)cc1C(F)(F)F [Compound 102] , field Cmax: 139

---

assay: Pharmacokinetics in Sprague Dawley rats, repeat oral administration for 15 days; assay type: in vivo, rat; conditions: male, Sprague-Dawley, rat, plasma, po, 10 mg/kg, SD rats, oral gavage, Day 1, 10 mg/kg, Male
measured_quantity: AUC(0-inf) (ng·h/mL)
Quick note: give the figure in ng·h/mL, leave out the unit.

Record `N#Cc1ccc(N2CCC[C@@H]2[C@@H](O)C(F)(F)F)cc1C(F)(F)F` , field AUC(0-inf): 1300

---

test: Pharmacokinetics in Sprague Dawley rats, repeat oral administration for 15 days; type: in vivo, rat; conditions: male, Sprague-Dawley, rat, plasma, po, 1 mg/kg, SD rats, oral gavage once daily, Day 15, 1 mg/kg, Male, n = 4
measured_quantity: Tmax (h)
Quick note: give the figure in h, leave out the unit.

Record N#Cc1ccc(N2CCC[C@@H]2[C@@H](O)C(F)(F)F)cc1C(F)(F)F [Compound 102] , field Tmax: 1.3
